Assay: Comparative pharmacokinetics of nitenpyram administered orally and topically to cats (Example 4)
Assay type: in vivo
Conditions: both sexes, cat, in vivo, oral administration, Capstar tablet 11.4 mg nitenpyram, read-out: Tmax: time at which the maximum concentration of nitenpyram in the plasma is observed
value_kind: Tmax

Could you share which Tmax value was measured for CCN(Cc1ccc(Cl)nc1)/C(=C/[N+](=O)[O-])NC ?
1.3 h

* * *

Test: Comparative pharmacokinetics of nitenpyram administered orally and topically to cats (Example 4)
Format: in vivo
Conditions: female, in vivo, topical or ocular, 50 mg per cat, topical administration, 10% solution 0.5 ml per cat, read-out: AUCtot: area under the curve of the nitenpyram concentration over time determined between t0 and the final measurement
value_kind: AUC (ng·h/mL)
Express it in ng·h/mL; write the number only.

Could you share which AUC value was measured for CCN(Cc1ccc(Cl)nc1)/C(=C/[N+](=O)[O-])NC ?
86400
